# TARGET_UNDER_TEST: WT hDicer (Homo sapiens, UniProt Q9UPY3)
# Construct: full-length, 1922 aa, ~220 kDa; K70A variant from Addgene plasmid 41589
# ASSAY_PROCEDURE: EMSA with radiolabelled ATP
READOUT: Kd

Request: Lab request: please report Kd under test system WT hDicer (Homo sapiens, UniProt Q9UPY3) for Nc1ncnc2c1ncn2[C@@H]1O[C@H](COP(=O)(O)OP(=O)(O)OP(=O)(O)O)[C@@H](O)[C@H]1O
Response: ~85 nM
